- ASSAY_NOTES: Anticancer activity against human NCI60 cells
- Type: functional
- SETTINGS: read-out: LC50 (the source's name)
ENDPOINT_NAME: CC50 (µM)
All answers are understood in µM, so give the number only.

- O=C(c1ccc2ccccc2c1)c1c(C(F)(F)F)[n+]([O-])c2ccc(F)cc2[n+]1[O-]: 8.32
- O=C(c1cccs1)c1c(C(F)(F)F)[n+]([O-])c2cc(F)c(F)cc2[n+]1[O-]: 9.33
- Cc1cc2c(cc1C)[n+]([O-])c(C(F)(F)F)c(C(=O)c1cccs1)[n+]2[O-]: 61.7
- O=C(c1ccco1)c1c(C(F)(F)F)[n+]([O-])c2cc(F)c(F)cc2[n+]1[O-]: 7.76

--- query ---
What value of CC50 has been reported for the following compound? O=C(c1ccco1)c1c(C(F)(F)F)[n+]([O-])c2ccc(F)cc2[n+]1[O-]
15.8

====

- ASSAY_NOTES: Anticancer activity against human NCI60 cells
- Type: functional
ENDPOINT_NAME: log10 GI50 (log10 of the value in µM)
Answers are given as log10 of GI50 in µM.

The following molecules have reported results that may help.
- O=C(c1ccc2ccccc2c1)c1c(C(F)(F)F)[n+]([O-])c2ccc(Cl)cc2[n+]1[O-]: 0.09
- COc1ccc2c(c1)[n+]([O-])c(C(=O)c1ccco1)c(C(F)(F)F)[n+]2[O-]: 0.45
- O=C(c1cccs1)c1c(C(F)(F)F)[n+]([O-])c2ccccc2[n+]1[O-]: -0.01
- O=C(c1ccco1)c1c(C(F)(F)F)[n+]([O-])c2ccc(Cl)cc2[n+]1[O-]: -0.49
- O=C(c1ccccc1)c1c(C(F)(F)F)[n+]([O-])c2cc(C(F)(F)F)ccc2[n+]1[O-]: 0.11

What value of log10 GI50 has been reported for the following molecule? COc1ccc2c(c1)[n+]([O-])c(C(=O)c1cccs1)c(C(F)(F)F)[n+]2[O-]
0.70

What value of log10 GI50 has been reported for the following molecule? O=C(c1ccco1)c1c(C(F)(F)F)nc2cc(C(F)(F)F)ccc2[n+]1[O-]
1.67

What value of log10 GI50 has been reported for the following molecule? Cc1ccc2c(c1)[n+]([O-])c(C(=O)c1cccs1)c(C(F)(F)F)[n+]2[O-]
-0.26

What value of log10 GI50 has been reported for the following molecule? O=C(c1ccco1)c1c(C(F)(F)F)[n+]([O-])c2ccccc2[n+]1[O-]
-0.39

What value of log10 GI50 has been reported for the following molecule? O=C(c1cccs1)c1c(C(F)(F)F)[n+]([O-])c2cc(Cl)c(Cl)cc2[n+]1[O-]
-0.13

====

- ASSAY_NOTES: Anticancer activity against ovarian cancer cells
- Format: functional
- SETTINGS: Homo sapiens, Cancer cell lines
ENDPOINT_NAME: log10 GI50 (log10 of the value in nM)
Answers are given as log10 of GI50 in nM.

The following compounds have reported results that may help.
- O=C(c1ccco1)c1c(C(F)(F)F)[n+]([O-])c2cc(F)c(F)cc2[n+]1[O-]: 2.59
- O=C(c1cccs1)c1c(C(F)(F)F)[n+]([O-])c2ccc(F)cc2[n+]1[O-]: 3.07
- O=C(c1ccco1)c1c(C(F)(F)F)[n+]([O-])c2ccc(Cl)cc2[n+]1[O-]: 2.75
- O=C(c1cccs1)c1c(C(F)(F)F)[n+]([O-])c2ccc(C(F)(F)F)cc2[n+]1[O-]: 2.63
- O=C(c1ccc2ccccc2c1)c1c(C(F)(F)F)[n+]([O-])c2ccc(F)cc2[n+]1[O-]: 3.08
- O=C(c1ccco1)c1c(C(F)(F)F)[n+]([O-])c2ccc(F)cc2[n+]1[O-]: 3.31
- O=C(c1ccc2ccccc2c1)c1c(C(F)(F)F)[n+]([O-])c2cc(C(F)(F)F)ccc2[n+]1[O-]: 3.23
- O=C(c1ccco1)c1c(C(F)(F)F)nc2cc(C(F)(F)F)ccc2[n+]1[O-]: 4.61

--- query ---
What value of log10 GI50 has been reported for the following compound? O=C(c1cccs1)c1c(C(F)(F)F)[n+]([O-])c2cc(F)c(F)cc2[n+]1[O-]
2.72

====

- ASSAY_NOTES: Anticancer activity against prostate cancer cells
- Format: functional
- SETTINGS: Homo sapiens, Cancer cell lines
GI50 for assorted molecules
All answers are understood in nM, so give the number only.

* O=C(c1cccs1)c1c(C(F)(F)F)[n+]([O-])c2cc(Cl)c(Cl)cc2[n+]1[O-] | 790
* O=C(c1ccc2ccccc2c1)c1c(C(F)(F)F)[n+]([O-])c2cc(F)c(F)cc2[n+]1[O-] | 1460
* O=C(c1ccc2ccccc2c1)c1c(C(F)(F)F)[n+]([O-])c2ccc(Cl)cc2[n+]1[O-] | 1480
* O=C(c1ccc2ccccc2c1)c1c(C(F)(F)F)[n+]([O-])c2ccc(F)cc2[n+]1[O-] | 1620
* O=C(c1ccc2ccccc2c1)c1c(C(F)(F)F)[n+]([O-])c2cc(Cl)c(Cl)cc2[n+]1[O-] | 1550
* COc1ccc2c(c1)[n+]([O-])c(C(=O)c1ccco1)c(C(F)(F)F)[n+]2[O-] | 3160
* O=C(c1ccco1)c1c(C(F)(F)F)[n+]([O-])c2ccccc2[n+]1[O-] | 200
* O=C(c1ccco1)c1c(C(F)(F)F)[n+]([O-])c2cc(C(F)(F)F)ccc2[n+]1[O-] | 190

What value of GI50 has been reported for the following molecule? Cc1cc2c(cc1C)[n+]([O-])c(C(F)(F)F)c(C(=O)c1cccs1)[n+]2[O-]
3890

What value of GI50 has been reported for the following molecule? O=C(c1cccs1)c1c(C(F)(F)F)[n+]([O-])c2ccc(C(F)(F)F)cc2[n+]1[O-]
200

What value of GI50 has been reported for the following molecule? Cc1ccc2c(c1)[n+]([O-])c(C(=O)c1ccco1)c(C(F)(F)F)[n+]2[O-]
240

====

- ASSAY_NOTES: Anticancer activity against melanoma cells
- Format: functional
- SETTINGS: Homo sapiens, Melanoma cell
Quick rule for you: GI50 under 1 µM gets T, anything else gets F.

Report whether reported GI50 is lower than 1 µM (strictly) for O=C(c1ccc2ccccc2c1)c1c(C(F)(F)F)[n+]([O-])c2ccc(F)cc2[n+]1[O-]
F

====

- ASSAY_NOTES: Anticancer activity against human NCI60 cells
- Type: functional
- SETTINGS: read-out: LC50 (the source's name)
CC50 for assorted compounds
All answers are understood in µM, so give the number only.

The following compounds have reported results that may help.
• O=C(c1ccccc1)c1c(C(F)(F)F)[n+]([O-])c2ccc(C(F)(F)F)cc2[n+]1[O-] = 3.89
• O=C(c1cccs1)c1c(C(F)(F)F)[n+]([O-])c2ccc(C(F)(F)F)cc2[n+]1[O-] = 5.5
• COc1ccc2c(c1)[n+]([O-])c(C(=O)c1ccco1)c(C(F)(F)F)[n+]2[O-] = 74.1
• O=C(c1ccco1)c1c(C(F)(F)F)[n+]([O-])c2ccc(C(F)(F)F)cc2[n+]1[O-] = 5.01
• O=C(c1ccccc1)c1c(C(F)(F)F)[n+]([O-])c2ccc(F)cc2[n+]1[O-] = 9.12

What value of CC50 has been reported for the following compound? O=C(c1cccs1)c1c(C(F)(F)F)[n+]([O-])c2ccc(F)cc2[n+]1[O-]
9.33

====

- ASSAY_NOTES: Anticancer activity against ovarian cancer cells
- Format: functional
- SETTINGS: Homo sapiens, Cancer cell lines
ENDPOINT_NAME: GI50
Include the unit after the number when you answer.

The following compounds have reported results that may help.
* O=C(c1cccs1)c1c(C(F)(F)F)[n+]([O-])c2ccc(Cl)cc2[n+]1[O-] | 160 nM
* O=C(c1cccs1)c1c(C(F)(F)F)[n+]([O-])c2cc(Cl)c(Cl)cc2[n+]1[O-] | 1160 nM
* O=C(c1ccc2ccccc2c1)c1c(C(F)(F)F)[n+]([O-])c2cc(F)c(F)cc2[n+]1[O-] | 3800 nM
* O=C(c1ccccc1)c1c(C(F)(F)F)[n+]([O-])c2cc(C(F)(F)F)ccc2[n+]1[O-] | 1180 nM

What value of GI50 has been reported for the following compound? COc1ccc2c(c1)[n+]([O-])c(C(=O)c1cccs1)c(C(F)(F)F)[n+]2[O-]
4990 nM

====

GI50 for assorted compounds
- ASSAY_NOTES: Anticancer activity against breast cancer cells
- Assay type: functional
- SETTINGS: Homo sapiens, Cancer cell lines
All answers are understood in nM, so give the number only.

* O=C(c1ccco1)c1nc2ccc(C(F)(F)F)cc2[n+]([O-])c1C(F)(F)F | 59100
* O=C(c1ccco1)c1c(C(F)(F)F)[n+]([O-])c2ccc(F)cc2[n+]1[O-] | 1330
* O=C(c1ccccc1)c1c(C(F)(F)F)[n+]([O-])c2ccc(C(F)(F)F)cc2[n+]1[O-] | 540
* O=C(c1cccs1)c1c(C(F)(F)F)[n+]([O-])c2cc(F)c(F)cc2[n+]1[O-] | 410
* O=C(c1cccs1)c1c(C(F)(F)F)[n+]([O-])c2ccccc2[n+]1[O-] | 850
* Cc1ccc2c(c1)[n+]([O-])c(C(=O)c1ccco1)c(C(F)(F)F)[n+]2[O-] | 660

What value of GI50 has been reported for the following compound? O=C(c1ccccc1)c1c(C(F)(F)F)[n+]([O-])c2cc(C(F)(F)F)ccc2[n+]1[O-]
1410

What value of GI50 has been reported for the following compound? Cc1cc2c(cc1C)[n+]([O-])c(C(F)(F)F)c(C(=O)c1cccs1)[n+]2[O-]
3080

What value of GI50 has been reported for the following compound? O=C(c1cccs1)c1c(C(F)(F)F)[n+]([O-])c2cc(C(F)(F)F)ccc2[n+]1[O-]
180

Values from ChEMBL document CHEMBL1137558
